- Procedure Details: Half life in Sprague-Dawley rat at 3.5 mg/kg, ip measured for 24 hrs by LC-MS/MS analysis
- Type: ADME, organism-based
- Assay Conditions: in vivo
Exercise: for every item that follows, state its recorded half-life.
Give bare numbers, in h.

1. Cl.Cn1cc(-c2ccnc(Nc3cccc(N)c3)n2)c2ccccc21 | 4.73

The reported half-life of the compound `Cc1ccc(Nc2nccc(-c3cn(C)c4ccccc34)n2)cc1N.Cl` was 5.19

* * *

- Procedure Details: AUC (0 to t) in Sprague-Dawley rat at 3.5 mg/kg, po measured for 24 hrs by LC-MS/MS analysis
- Format: ADME, organism-based
- Assay Conditions: in vivo
Exercise: for every item that follows, state its recorded AUC(0-t) at 24 h.
Remember to put the unit after the number in your answer.

1) Cc1ccc(Nc2nccc(-c3cn(C)c4ccccc34)n2)cc1N.Cl | 830 ng·h/mL

The reported AUC(0-t) at 24 h of the molecule `Cl.Cn1cc(-c2ccnc(Nc3cccc(N)c3)n2)c2ccccc21` was 157 ng·h/mL

* * *

- Procedure Details: Cmax in Sprague-Dawley rat at 3.5 mg/kg, iv measured for 24 hrs by LC-MS/MS analysis
- Format: ADME, organism-based
- Assay Conditions: in vivo
Measurement Type: Cmax (µg/mL)
Answers are plain numbers, in µg/mL.

1) Cl.Cn1cc(-c2ccnc(Nc3cccc(N)c3)n2)c2ccccc21 | 0.655

The reported Cmax of the compound `Cc1ccc(Nc2nccc(-c3cn(C)c4ccccc34)n2)cc1N.Cl` was 0.504

* * *

Exercise: for every item that follows, state its recorded inhibition at 5 µM.
- Procedure Details: Anti-inflammatory activity against HBE cells assessed as inhibition of LPS-induced IL-8 level at 5 uM pretreated for 30 mins followed by LPS treatment for 24 hrs by ELISA relative to control
- Type: functional
- Assay Conditions: Homo sapiens, time 24.5 hrs
Numbers only, in %.

1) Cn1cc(-c2ccnc(Nc3ccccn3)n2)c2ccccc21 | 56
2) Nc1cccc(Nc2nccc(Nc3ccc(Br)cc3)n2)c1 | 56
3) COc1ccc(Nc2ccnc(Nc3cccc(N)c3)n2)c(OC)c1 | 56

List inhibition at 5 µM for every entry below, keeping the order given.
1. CC(C)(C)c1ccc(Nc2ccnc(Nc3cccc(N)c3)n2)cc1
2. Cn1nccc1Nc1nccc(-c2cn(C)c3ccccc23)n1
3. Nc1cccc(Nc2nccc(Nc3ccccc3)n2)c1
4. COc1cccc(Nc2ccnc(Nc3cccc(N)c3)n2)c1
5. Nc1cccc(Nc2nccc(Nc3ccc(Cl)cc3)n2)c1
6. N#Cc1cccc(Nc2ccnc(Nc3cccc(N)c3)n2)c1
7. Nc1cccc(Nc2nccc(Oc3ccc(OC(F)(F)F)cc3)n2)c1
8. Cn1cc(-c2ccnc(Nc3cccc(C(=O)O)c3)n2)c2ccccc21

1: 56; 2: 64; 3: 56; 4: 56; 5: 56; 6: 56; 7: 56; 8: 56

The reported inhibition at 5 µM of the compound `Cn1cc(-c2ccnc(Nc3cc(N)ccc3F)n2)c2ccccc21` was 83

* * *

- Measurement Target: Non-receptor tyrosine-protein kinase TYK2 (Homo sapiens, UniProt P29597)
- Sequence (P29597 whole entry): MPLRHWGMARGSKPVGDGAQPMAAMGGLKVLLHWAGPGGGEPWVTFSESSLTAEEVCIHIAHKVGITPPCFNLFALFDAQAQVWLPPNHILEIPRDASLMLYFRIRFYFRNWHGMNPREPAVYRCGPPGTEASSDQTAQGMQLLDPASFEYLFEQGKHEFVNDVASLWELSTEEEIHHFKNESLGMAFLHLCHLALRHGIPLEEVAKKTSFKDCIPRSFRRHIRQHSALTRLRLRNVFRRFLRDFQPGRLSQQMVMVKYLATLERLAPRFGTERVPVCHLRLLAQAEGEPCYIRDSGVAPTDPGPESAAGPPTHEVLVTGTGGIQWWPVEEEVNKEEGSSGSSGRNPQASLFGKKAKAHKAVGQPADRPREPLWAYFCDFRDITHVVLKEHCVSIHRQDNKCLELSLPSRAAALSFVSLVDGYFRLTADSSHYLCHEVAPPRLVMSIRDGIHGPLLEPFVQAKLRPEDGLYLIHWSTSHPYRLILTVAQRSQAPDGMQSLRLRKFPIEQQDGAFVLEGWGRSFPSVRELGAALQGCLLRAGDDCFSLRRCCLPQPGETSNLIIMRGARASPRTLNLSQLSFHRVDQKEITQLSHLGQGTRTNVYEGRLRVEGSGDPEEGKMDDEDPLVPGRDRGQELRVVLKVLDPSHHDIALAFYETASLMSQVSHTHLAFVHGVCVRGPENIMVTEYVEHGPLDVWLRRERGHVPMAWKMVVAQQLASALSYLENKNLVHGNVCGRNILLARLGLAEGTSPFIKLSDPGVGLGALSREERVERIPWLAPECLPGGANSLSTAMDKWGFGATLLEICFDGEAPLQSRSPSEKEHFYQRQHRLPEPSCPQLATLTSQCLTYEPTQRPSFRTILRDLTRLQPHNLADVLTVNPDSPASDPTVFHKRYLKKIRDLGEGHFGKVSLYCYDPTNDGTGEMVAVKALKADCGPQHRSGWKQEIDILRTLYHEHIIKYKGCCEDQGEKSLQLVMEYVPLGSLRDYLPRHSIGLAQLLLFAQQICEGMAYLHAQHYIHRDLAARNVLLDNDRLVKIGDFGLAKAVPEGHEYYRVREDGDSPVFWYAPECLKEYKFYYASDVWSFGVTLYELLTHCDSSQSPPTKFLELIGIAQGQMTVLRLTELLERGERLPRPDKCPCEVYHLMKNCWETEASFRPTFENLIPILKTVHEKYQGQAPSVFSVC
Measurement Type: pIC50
Numbers only, as −log10 of the molar value.

The reported pIC50 of the compound `Cl.Cn1cc(-c2ccnc(Nc3cccc(N)c3)n2)c2ccccc21` was 6.76

* * *

Exercise: for every item that follows, state its recorded Cmax.
- Procedure Details: Cmax in Sprague-Dawley rat at 3.5 mg/kg, ip measured for 24 hrs by LC-MS/MS analysis
- Type: ADME, organism-based
- Assay Conditions: in vivo
Give bare numbers, in ng/mL.

1. Cl.Cn1cc(-c2ccnc(Nc3cccc(N)c3)n2)c2ccccc21 | 193

The reported Cmax of the molecule `Cc1ccc(Nc2nccc(-c3cn(C)c4ccccc34)n2)cc1N.Cl` was 331
